Source of measurements: patent US20130012432A1

Experiment: physchem
Settings: pH 6.1, Solubility Conc.
Positions of bridges follow the written chain, without caps; N, C: chain ends. Non-standard residues stand in square brackets, D forms with d. Residues, ends and D or L forms follow the SMILES beside them. Groups on a side chain read outwards from the residue. *: point of attachment. Lys(CH2CO2H)2 = N[C@@H](CCCCN(CC(=O)O)CC(=O)O)C(=O)O; C16 diacid = O=C(O)CCCCCCCCCCCCCCC(=O)*; Orn = NCCC[C@H](N)C(=O)O; AEEA = NCCOCCOCC(=O)O
Measured solubility accompanies every entry in the list below.
Give the value; after it, write the unit.

INSERT INTO measurements (molecule, val) VALUES
  ('CC(=O)N[C@H]1CCC(=O)NCCC[C@@H](C(=O)N2CCC[C@H]2C(=O)N2CCC[C@H]2C(=O)N[C@@H](CCCNC(=N)N)C(=O)N[C@@H](CC(=O)O)C(=O)N[C@@H](CCCCN(CC(=O)O)CC(=O)O)C(=O)N[C@@H](CCCCNC(=O)COCCOCCNC(=O)CCCCCCCCCCCCCCC(=O)O)C(N)=O)NC(=O)[C@H](Cc2c[nH]c3ccccc23)NC(=O)[C@H](CCCNC(=N)N)NC(=O)[C@@H](Cc2ccccc2)NC(=O)[C@H](Cc2cnc[nH]2)NC1=O [Example 18] (Ac-EH[dF]RW[Orn]PPRD[Lys(CH2CO2H)2]K([AEEA-C16 diacid])-NH2; lactam 1-6)', '310 µM');

Shift focus to the following entry.
For this molecule ( CC(=O)N[C@H]1CCCNC(=O)C[C@@H](C(=O)N2CCC[C@H]2C(=O)N2CCC[C@H]2C(=O)N[C@@H](Cc2c[nH]cn2)C(=O)N[C@@H](CCC(=O)O)C(=O)N[C@@H](CCCCN(CC(=O)O)CC(=O)O)C(=O)N[C@@H](CCCCNC(=O)COCCOCCNC(=O)CCCCCCCCCCCCCCC(=O)O)C(N)=O)NC(=O)[C@H](Cc2c[nH]c3ccccc23)NC(=O)[C@H](CCCNC(=N)N)NC(=O)[C@@H](Cc2ccccc2)NC(=O)[C@H](Cc2c[nH]cn2)NC1=O [Example 51] (Ac-[Orn]H[dF]RWDPPHE[Lys(CH2CO2H)2]K([AEEA-C16 diacid])-NH2; lactam 1-6) ), measured solubility is 359 µM

----------
Assay: physchem
Conditions: pH 4.9, Solubility Conc.
Positions of bridges follow the written chain, without caps; N, C: chain ends. Non-standard residues stand in square brackets, D forms with d. Residues, ends and D or L forms follow the SMILES beside them. Groups on a side chain read outwards from the residue. *: point of attachment. Lys(CH2CO2H)2 = N[C@@H](CCCCN(CC(=O)O)CC(=O)O)C(=O)O; C16 diacid = O=C(O)CCCCCCCCCCCCCCC(=O)*; hCys = N[C@@H](CCS)C(=O)O; Orn = NCCC[C@H](N)C(=O)O; AEEA = NCCOCCOCC(=O)O
measurement label: solubility (µM)
Give the number; µM is assumed, so skip it.

INSERT INTO results (compound, measurement_label, reading_unit, val) VALUES
  ('CC(=O)N[C@H]1CCSSC[C@@H](C(=O)N2CCC[C@H]2C(=O)N2CCC[C@H]2C(=O)N[C@@H](CCCCN)C(=O)N[C@@H](CCC(=O)O)C(=O)N[C@@H](CCCCN(CC(=O)O)CC(=O)O)C(=O)N[C@@H](CCCCNC(=O)COCCOCCNC(=O)CCCCCCCCCCCCCCC(=O)O)C(N)=O)NC(=O)[C@H](Cc2c[nH]c3ccccc23)NC(=O)[C@H](CCCNC(=N)N)NC(=O)[C@@H](Cc2ccccc2)NC(=O)[C@H](Cc2c[nH]cn2)NC1=O [Example 5] (Ac-[hCys]H[dF]RWCPPKE[Lys(CH2CO2H)2]K([AEEA-C16 diacid])-NH2; disulfide 1-6)', 'solubility', 'µM', 233);

Shift focus to the following entry.
For this compound ( CC(=O)N[C@H]1CCCNC(=O)C[C@@H](C(=O)N2CCC[C@H]2C(=O)N2CCC[C@H]2C(=O)N[C@@H](CCCNC(=N)N)C(=O)N[C@@H](CCC(=O)O)C(=O)N[C@@H](CCCCN(CC(=O)O)CC(=O)O)C(=O)N[C@@H](CCCCNC(=O)COCCOCCNC(=O)CCCCCCCCCCCCCCC(=O)O)C(N)=O)NC(=O)[C@H](Cc2c[nH]c3ccccc23)NC(=O)[C@H](CCCNC(=N)N)NC(=O)[C@@H](Cc2ccccc2)NC(=O)[C@H](Cc2c[nH]cn2)NC1=O [Example 42] (Ac-[Orn]H[dF]RWDPPRE[Lys(CH2CO2H)2]K([AEEA-C16 diacid])-NH2; lactam 1-6) ), measured solubility is 153

----------
Assay: physchem
Details: pH 7.7, Solubility Conc.
Positions of bridges follow the written chain, without caps; N, C: chain ends. Non-standard residues stand in square brackets, D forms with d. Residues, ends and D or L forms follow the SMILES beside them. Groups on a side chain read outwards from the residue. *: point of attachment. Lys(CH2CO2H)2 = N[C@@H](CCCCN(CC(=O)O)CC(=O)O)C(=O)O; X1 = O=C(O)CCCCCCCCCCCCCCCCC(=O)NCCOCCOCCN*; C18 diacid = O=C(O)CCCCCCCCCCCCCCCCC(=O)*; C17 diacid = O=C(O)CCCCCCCCCCCCCCCC(=O)*; C16 diacid = O=C(O)CCCCCCCCCCCCCCC(=O)*; hCys = N[C@@H](CCS)C(=O)O; Orn = NCCC[C@H](N)C(=O)O; Dab = NCC[C@H](N)C(=O)O; AEEA = NCCOCCOCC(=O)O
measurement label: solubility (µM)
Give the number; µM is assumed, so skip it.

Use the examples below as a reference point.
INSERT INTO results (compound, reading_unit, val) VALUES
  ('CC(=O)N[C@H]1CCCNC(=O)C[C@@H](C(=O)N2CCC[C@H]2C(=O)N2CCC[C@H]2C(=O)N[C@@H](CCCNC(=N)N)C(=O)N[C@@H](CCC(=O)O)C(=O)N[C@@H](CCCCN(CC(=O)O)CC(=O)O)C(=O)N[C@@H](CO)C(=O)N[C@@H](CO)C(=O)NCCOCCOCCNC(=O)CCCCCCCCCCCCCCCCC(=O)O)NC(=O)[C@H](Cc2c[nH]c3ccccc23)NC(=O)[C@H](CCCNC(=N)N)NC(=O)[C@@H](Cc2ccccc2)NC(=O)[C@H](Cc2c[nH]cn2)NC1=O [Example 50] (Ac-[Orn]H[dF]RWDPPRE[Lys(CH2CO2H)2]SS-X1; lactam 1-6)', 'µM', 197),
  ('CC(=O)N[C@H]1CCC(=O)NCCC[C@@H](C(=O)N2CCC[C@H]2C(=O)N2CCC[C@H]2C(=O)N[C@@H](CC(=O)O)C(=O)N[C@@H](CCCCN(CC(=O)O)CC(=O)O)C(=O)N[C@@H](CCCCNC(=O)COCCOCCNC(=O)CCCCCCCCCCCCCCCCC(=O)O)C(N)=O)NC(=O)[C@H](Cc2c[nH]c3ccccc23)NC(=O)[C@H](CCCNC(=N)N)NC(=O)[C@@H](Cc2ccccc2)NC(=O)[C@H](Cc2c[nH]cn2)NC1=O [Example 26] (Ac-EH[dF]RW[Orn]PPD[Lys(CH2CO2H)2]K([AEEA-C18 diacid])-NH2; lactam 1-6)', 'µM', 474),
  ('CC(=O)N[C@H]1CCCCNC(=O)C[C@@H](C(=O)N2CCC[C@H]2C(=O)N[C@@H](CO)C(=O)N[C@@H](Cc2c[nH]cn2)C(=O)N[C@@H](CCC(=O)O)C(=O)N[C@@H](CCCCN(CC(=O)O)CC(=O)O)C(=O)N[C@@H](CCCCNC(=O)COCCOCCNC(=O)CCCCCCCCCCCCCCCC(=O)O)C(N)=O)NC(=O)[C@H](Cc2c[nH]c3ccccc23)NC(=O)[C@H](CCCNC(=N)N)NC(=O)[C@@H](Cc2ccccc2)NC(=O)[C@H](Cc2c[nH]cn2)NC1=O [Example 49] (Ac-KH[dF]RWDPSHE[Lys(CH2CO2H)2]K([AEEA-C17 diacid])-NH2; lactam 1-6)', 'µM', 439),
  ('CC(=O)N[C@H]1CCC(=O)NCCC[C@@H](C(=O)N2CCC[C@H]2C(=O)N2CCC[C@H]2C(=O)N[C@@H](CC(=O)O)C(=O)N[C@@H](CCCCN(CC(=O)O)CC(=O)O)C(=O)N[C@@H](CCCCNC(=O)COCCOCCNC(=O)CCCCCCCCCCCCCCC(=O)O)C(N)=O)NC(=O)[C@H](Cc2c[nH]c3ccccc23)NC(=O)[C@H](CCCNC(=N)N)NC(=O)[C@@H](Cc2ccccc2)NC(=O)[C@H](Cc2c[nH]cn2)NC1=O [Example 13] (Ac-EH[dF]RW[Orn]PPD[Lys(CH2CO2H)2]K([AEEA-C16 diacid])-NH2; lactam 1-6)', 'µM', 472);

For this compound ( CC(=O)N[C@H]1CCSSC[C@@H](C(=O)N2CCC[C@H]2C(=O)N2CCC[C@H]2C(=O)N[C@@H](CCCCN)C(=O)N[C@@H](CCC(=O)O)C(=O)N[C@@H](CCCCN(CC(=O)O)CC(=O)O)C(=O)N[C@@H](CCCCNC(=O)COCCOCCNC(=O)CCCCCCCCCCCCCCC(=O)O)C(N)=O)NC(=O)[C@H](Cc2c[nH]c3ccccc23)NC(=O)[C@H](CCCNC(=N)N)NC(=O)[C@@H](Cc2ccccc2)NC(=O)[C@H](Cc2c[nH]cn2)NC1=O [Example 5] (Ac-[hCys]H[dF]RWCPPKE[Lys(CH2CO2H)2]K([AEEA-C16 diacid])-NH2; disulfide 1-6) ), measured solubility is 498

For this compound ( CC(=O)N[C@H]1CCNC(=O)C[C@@H](C(=O)N2CCC[C@H]2C(=O)N2CCC[C@H]2C(=O)N[C@@H](CCCNC(=N)N)C(=O)N[C@@H](CCC(=O)O)C(=O)N[C@@H](CCCCN(CC(=O)O)CC(=O)O)C(=O)N[C@@H](CO)C(=O)N[C@@H](CO)C(=O)NCCOCCOCCNC(=O)CCCCCCCCCCCCCCCCC(=O)O)NC(=O)[C@H](Cc2c[nH]c3ccccc23)NC(=O)[C@H](CCCNC(=N)N)NC(=O)[C@@H](Cc2ccccc2)NC(=O)[C@H](Cc2c[nH]cn2)NC1=O [Example 9] (Ac-[Dab]H[dF]RWDPPRE[Lys(CH2CO2H)2]SS-X1; lactam 1-6) ), measured solubility is 242

For this compound ( CC(=O)N[C@H]1CCC(=O)NCCC[C@@H](C(=O)N2CCC[C@H]2C(=O)N2CCC[C@H]2C(=O)N[C@@H](CCCNC(=N)N)C(=O)N[C@@H](CC(=O)O)C(=O)N[C@@H](CCCCN(CC(=O)O)CC(=O)O)C(=O)N[C@@H](CCCCNC(=O)COCCOCCNC(=O)CCCCCCCCCCCCCCC(=O)O)C(N)=O)NC(=O)[C@H](Cc2c[nH]c3ccccc23)NC(=O)[C@H](CCCNC(=N)N)NC(=O)[C@@H](Cc2ccccc2)NC(=O)[C@H](Cc2cnc[nH]2)NC1=O [Example 18] (Ac-EH[dF]RW[Orn]PPRD[Lys(CH2CO2H)2]K([AEEA-C16 diacid])-NH2; lactam 1-6) ), measured solubility is 451
